assay_system: Alpha-2A adrenergic receptor (Rattus norvegicus) (UniProt P22909)
Sequence (P22909 whole entry): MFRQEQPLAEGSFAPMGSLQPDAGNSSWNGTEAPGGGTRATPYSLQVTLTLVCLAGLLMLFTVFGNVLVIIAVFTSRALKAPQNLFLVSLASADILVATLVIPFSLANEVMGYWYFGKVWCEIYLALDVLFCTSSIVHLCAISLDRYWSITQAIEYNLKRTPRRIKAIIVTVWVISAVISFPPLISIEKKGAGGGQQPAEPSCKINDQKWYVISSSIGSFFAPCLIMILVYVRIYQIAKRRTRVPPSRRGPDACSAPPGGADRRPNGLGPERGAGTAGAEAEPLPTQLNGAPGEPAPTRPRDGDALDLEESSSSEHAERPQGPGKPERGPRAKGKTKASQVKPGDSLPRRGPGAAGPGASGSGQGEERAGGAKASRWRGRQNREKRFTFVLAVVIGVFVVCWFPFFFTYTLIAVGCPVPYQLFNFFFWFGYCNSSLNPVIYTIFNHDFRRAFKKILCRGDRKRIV
protocol: Displacement of [3H]RX 821002 from Adrenergic alpha-2a receptor in rat cerebral cortex cells at 1 uM
Assay type: cell-based
Provide the recorded Activity for the entries that follow.
Answers are plain numbers, in %.

{"chemical_smiles": "Cc1ccc(S(=O)(=O)NCCCCN2CCN(c3ccccc3)CC2)cc1", "Activity (%)": 90}

Below: the item to evaluate.
Looking up `CC(=O)Nc1cccc(N2CCN(CCCCNS(=O)(=O)c3ccc(C)cc3)CC2)c1` , I see its Activity listed as 43

###

assay_system: 5-hydroxytryptamine receptor 1B (Rattus norvegicus)
Sequence (P28564 whole entry): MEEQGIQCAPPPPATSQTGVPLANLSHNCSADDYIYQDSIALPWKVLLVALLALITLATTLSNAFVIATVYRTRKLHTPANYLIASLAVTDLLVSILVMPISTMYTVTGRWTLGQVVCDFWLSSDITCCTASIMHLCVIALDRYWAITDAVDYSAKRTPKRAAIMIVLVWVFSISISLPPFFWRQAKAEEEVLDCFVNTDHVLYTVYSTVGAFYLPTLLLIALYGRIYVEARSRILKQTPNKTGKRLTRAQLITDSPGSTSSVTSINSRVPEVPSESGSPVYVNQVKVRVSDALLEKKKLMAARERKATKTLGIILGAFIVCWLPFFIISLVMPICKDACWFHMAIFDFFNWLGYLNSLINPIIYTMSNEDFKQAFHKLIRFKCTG
pKi: −log10 of the molar value.
result_type: pKi

Entry `CC(=O)Nc1cccc(N2CCN(CCCCNS(=O)(=O)CC3CCCCC3)CC2)c1` — recorded pKi = < 5.70

###

protocol: Binding affinity to sodium channel by radioligand binding assay
pKi: −log10 of the molar value.
result_type: pKi

Reported pKi for CC(=O)Nc1cccc(N2CCN(CCCCNS(=O)(=O)CC3CCCCC3)CC2)c1 [NALUZOTAN] was < 5.70

###

protocol: Binding affinity to histamine receptor by radioligand binding assay
result_type: Ki

response.value for `CC(=O)Nc1cccc(N2CCN(CCCCNS(=O)(=O)CC3CCCCC3)CC2)c1` (field: Ki) = > 2000 nM

###

protocol: Toxicity in po dosed Beagle dog
Format: organism-based, Canis lupus familiaris
condition_set: in vivo
result_type: LD50 (mg/kg)
Answers are plain numbers, in mg/kg.

Value of measured LD50 for the entry `O=C1CC2(CCCC2)CC(=O)N1CCCCN1CCN(c2ncccn2)CC1` : 586

###

assay_system: UniProt P23975
Sequence (P23975 whole entry): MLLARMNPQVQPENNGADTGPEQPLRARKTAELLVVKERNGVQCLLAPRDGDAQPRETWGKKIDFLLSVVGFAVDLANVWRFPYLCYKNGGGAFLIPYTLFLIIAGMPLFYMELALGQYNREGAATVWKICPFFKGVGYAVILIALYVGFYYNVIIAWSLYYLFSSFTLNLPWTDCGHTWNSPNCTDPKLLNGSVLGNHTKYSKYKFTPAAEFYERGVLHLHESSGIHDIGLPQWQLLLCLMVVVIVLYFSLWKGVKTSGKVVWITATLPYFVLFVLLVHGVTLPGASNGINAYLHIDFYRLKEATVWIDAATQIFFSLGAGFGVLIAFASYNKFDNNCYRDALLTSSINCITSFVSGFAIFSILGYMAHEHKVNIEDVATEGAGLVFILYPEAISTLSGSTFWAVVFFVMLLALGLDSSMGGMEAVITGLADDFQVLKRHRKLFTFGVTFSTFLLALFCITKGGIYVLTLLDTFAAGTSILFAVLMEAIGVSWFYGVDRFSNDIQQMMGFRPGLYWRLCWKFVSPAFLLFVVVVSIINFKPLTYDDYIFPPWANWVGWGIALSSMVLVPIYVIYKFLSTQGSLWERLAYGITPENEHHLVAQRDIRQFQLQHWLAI
result_type: Ki

Sure, the documented Ki for `CC(=O)Nc1cccc(N2CCN(CCCCNS(=O)(=O)CC3CCCCC3)CC2)c1` is > 2000 nM

###

protocol: Protein binding in human serum at 10 uM
Type: ADME, organism-based
condition_set: read-out: PPB (converted)
result_type: fraction unbound at 10 µM
Numbers only.

The compound `CC(=O)Nc1cccc(N2CCN(CCCCNS(=O)(=O)CC3CCCCC3)CC2)c1` showed fraction unbound at 10 µM equal to 0.08

###

protocol: Binding affinity to melanocortin receptor by radioligand binding assay
pKi: −log10 of the molar value.
result_type: pKi

The reported pKi of the compound `CC(=O)Nc1cccc(N2CCN(CCCCNS(=O)(=O)CC3CCCCC3)CC2)c1` was < 5.70

###

protocol: Binding affinity to chloride channel by radioligand binding assay
pKi: −log10 of the molar value.
result_type: pKi

The molecule listed as CC(=O)Nc1cccc(N2CCN(CCCCNS(=O)(=O)CC3CCCCC3)CC2)c1 [NALUZOTAN] has a reported pKi of < 5.00

###

protocol: Half life in Beagle dog at 3 mg/kg, po
Format: ADME, organism-based, Canis lupus familiaris
Design: dose 3 mg/kg, route oral
condition_set: in vivo
result_type: half-life (min)
Answers are plain numbers, in min.

{"compound": "O=C1CC2(CCCC2)CC(=O)N1CCCCN1CCN(c2ncccn2)CC1 [BUSPIRONE]", "half-life / min": 60}
{"compound": "CC(=O)Nc1cccc(N2CCN(CCCCNS(=O)(=O)CC3CCCCC3)CC2)c1 [NALUZOTAN]", "half-life / min": 66}

Per the record, `CC(=O)Nc1cccc(N2CCN(CCCCNS(=O)(=O)CC(C)C)CC2)c1` has half-life of 144

Source: ChEMBL document CHEMBL1147799
